Origin of measurements: paper PMC5540273

Measured %Inh accompanies every entry in the list below.
- Tested on: CSNK1A1L;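 also: KINOMEscan kinase panel screen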
- Applied Conditions: concentration: 1 μM, replicates: in singlicate; n = 1
Parameter Measured: %Inh

>>> observed_value("Cn1cncc1-c1ccc2ncnc(Nc3ccc(OCc4ccccc4)cc3)c2c1")
"22%"
>>> observed_value("COC(=O)c1c(-c2ccccc2)c2cc(OC)ccc2c(=O)n1Cc1ccccc1")
"4%"
>>> observed_value("O=S(=O)(c1ccc(-c2ccnc3[nH]ccc23)cc1)N1CCCC1")
"2%"
>>> observed_value("COc1ccc(CNC(=O)NC2CCN(c3ccnc(Nc4cc(OC)c(OC)c(OC)c4)n3)C2)cc1 (stereo not drawn)")
"0%"
>>> observed_value("O=C(Nc1n[nH]c2cc(-c3cccc(F)c3F)ccc12)C1CC1")
"0%"
>>> observed_value("COc1cc(Nc2nccc(N3CCC(NC(=O)Nc4cc(C)ccc4C)C3)n2)cc(OC)c1OC (stereo not drawn)")
"17%"
>>> observed_value("Cc1ccc(NC(=O)Nc2cccc(Cl)c2)cc1-c1ccc(C(=O)Nc2ccncc2)cc1")
"15%"
>>> observed_value("CS(=O)(=O)c1ccc(-c2c(-c3ncn[nH]3)sc(N3CCOCC3)c2C#N)cc1")
"0%"
>>> observed_value("CCn1c(-c2cccnc2O)nc2cnccc21")
"84%"
>>> observed_value("O=c1cc(N2CCOCC2)nc2n(Cc3cccc(Cl)c3Cl)ccn12")
"6%"
>>> observed_value("CN(C)CCN(C)C(=O)c1cc(-c2ccncc2)c(-c2ccc(Cl)c(O)c2)o1.Cl.Cl")
"20%"
>>> observed_value("COc1ccc(Nc2nccc(-c3cccc(NC(=O)c4cc5cc(F)ccc5[nH]4)c3)n2)cc1")
"20%"
